# Tested system: GFP-SmSERT-B (Schistosoma mansoni, UniProt Q3I1M7)
# Assay: cell-based

{"columns": ["Compound", "IC50 (µM)"],
 "data": [
  ["CSc1ccc2c(c1)C(N1CCN(C)CC1)Cc1ccccc1S2 (stereo not drawn) [Methiothepin]", 2.2],
  ["O=[N+]([O-])c1ccc2nc(N3CCNCC3)ccc2c1 [6-Nitroquipazine]", 0.004],
  ["CN(C)CCCN1c2ccccc2CCc2ccccc21 [Imipramine]", 0.3],
  ["COc1ccc2[nH]cc(C3=CCNCC3)c2c1 [RU 24969]", 165],
  ["COC(=O)[C@H]1[C@@H](OC(=O)c2ccccc2)C[C@@H]2CC[C@H]1N2C [Cocaine]", 35.4],
  ["NCCc1c[nH]c2ccccc12 [Tryptamine]", 19.3]
]}
